- Tested on: HT-29
- assay.info: Antiproliferative activity against human HT29 cell line after 72 hrs by SRB assay
- Format: functional
- details: HT-29, 72 h
attribute.measured: GI50 (µM)
Express your answer in µM, writing the number without its unit.

// below: answered molecules
# GI50 lookup, item COC(=O)c1c(-c2cc(OC)c(OC(C)C)cc2OC(C)C)c(-c2ccc(OC(C)C)c(OC)c2)c2c3cc(OC)c(OC(C)C)cc3ccn12
13.6

# GI50 lookup, item COC(=O)c1c(-c2cc(OC)c(O)cc2O)c(-c2ccc(O)c(OC)c2)c2n1CCc1cc(O)c(OC)cc1-2
17.1

# GI50 lookup, item COC(=O)c1c(-c2ccc(O)c(OC)c2)c(-c2ccc(O)c(OC)c2)c2c3cc(OC)c(O)cc3ccn12
8.1

# GI50 lookup, item COC(=O)c1c(-c2ccc(OC)cc2)c(-c2ccc(OC)cc2)c2n1CCc1cc(O)c(OC)cc1-2
10.3

# GI50 lookup, item COC(=O)c1c(-c2cc(O)c(O)cc2O)c(-c2cc(OC)ccc2OC)c2n1CCc1cc(O)c(OC)cc1-2
8.4

# GI50 lookup, item COC(=O)c1c(-c2ccc(OC)cc2)c(-c2ccc(OC)cc2)c2c3cc(OC)c(O)cc3ccn12
9.7

# GI50 lookup, item COC(=O)c1cc(-c2ccc(O)c(OC)c2)c2n1CCc1cc(OC(C)C)c(OC)cc1-2
18.1

# GI50 lookup, item COC(=O)c1c(-c2ccc(O)cc2)c(-c2ccc(O)cc2)c2c3cc(OC)c(O)cc3ccn12
9.8

# GI50 lookup, item COC(=O)c1c(-c2ccc(OC)c(OC)c2)c(-c2ccc(OC)c(OC)c2)c2n1CCc1cc(OC(C)C)c(OC)cc1-2
1

# GI50 lookup, item COC(=O)c1c(-c2cccc([N+](=O)[O-])c2)c(-c2cccc([N+](=O)[O-])c2)c2c3cc(OC)c(O)cc3ccn12
8.9

---
# GI50 lookup, item COC(=O)c1c(-c2cc(O)c(O)cc2O)c(-c2cc(OC)ccc2OC)c2c3cc(OC)c(O)cc3ccn12
7.1

# GI50 lookup, item COC(=O)c1c(-c2cccc(O)c2)c(-c2cccc(O)c2)c2c3cc(OC)c(O)cc3ccn12
18.4

###

- System: HT-29
- assay.info: Antiproliferative activity against human HT29 cell line after 72 hrs by SRB assay
- Assay type: functional
- details: HT-29, 72 h
attribute.measured: GI50 (µM)
Express your answer in µM, writing the number without its unit.

# GI50 lookup, item COC(=O)c1cc(-c2ccc(O)c(OC)c2)c2c3cc(OC)c(O)cc3ccn12
23.9

# GI50 lookup, item COC(=O)c1c(-c2cc(OC)c(OC)c(OC)c2)c(-c2cc(OC)c(OC)c(OC)c2)c2n1CCc1cc(OC(C)C)c(OC)cc1-2
34

# GI50 lookup, item COC(=O)c1c(-c2cccc([N+](=O)[O-])c2)c(-c2cccc([N+](=O)[O-])c2)c2n1CCc1cc(O)c(OC)cc1-2
11.3

# GI50 lookup, item COC(=O)c1c(-c2cc(OC)c(O)cc2O)c(-c2ccc(O)c(OC)c2)c2c3cc(OC)c(O)cc3ccn12
7.9

# GI50 lookup, item COc1cc(-c2c3c4cc(OC)c(O)cc4oc(=O)c3n3ccc4cc(O)c(OC)cc4c23)ccc1O
5.1

# GI50 lookup, item COC(=O)c1cc(-c2ccc(O)c(OC)c2)c2n1CCc1cc(O)c(OC)cc1-2
18

# GI50 lookup, item COC(=O)c1c(-c2ccc(O)cc2)c(-c2ccc(O)c(OC)c2)c2c3cc(OC)c(O)cc3ccn12
10.1

---
# GI50 lookup, item COC(=O)c1c(-c2ccc(O)c(OC)c2)c(-c2ccc(O)c(OC)c2)c2n1CCc1cc(OC(C)C)c(OC)cc1-2
6.9
